Target: T1, Recombinant WNV-E protein ectodomain (West Nile virus, UniProt Q9Q6P4 291-700)
T1 construct: extracellular domain; also called rWNV-E; WNE
T1 sequence (looked up): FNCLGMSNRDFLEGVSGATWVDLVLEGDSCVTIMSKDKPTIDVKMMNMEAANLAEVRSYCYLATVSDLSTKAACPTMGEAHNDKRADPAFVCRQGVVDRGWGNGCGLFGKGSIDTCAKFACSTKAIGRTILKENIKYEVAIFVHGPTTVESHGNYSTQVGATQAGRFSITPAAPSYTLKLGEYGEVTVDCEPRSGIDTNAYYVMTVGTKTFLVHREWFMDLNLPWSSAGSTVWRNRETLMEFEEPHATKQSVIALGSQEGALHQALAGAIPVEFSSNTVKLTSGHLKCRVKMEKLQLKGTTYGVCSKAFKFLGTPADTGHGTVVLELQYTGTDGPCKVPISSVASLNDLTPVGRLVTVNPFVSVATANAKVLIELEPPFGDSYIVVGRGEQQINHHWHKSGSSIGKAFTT
Experiment: SPR (Biacore 3000); scFv on NTA chip via His tag, rWNV-E in solution
measure: Ka (M⁻¹)
API: value field is a number in M⁻¹; no unit string.

Ask: Request the reported Ka associated with scFv 69 (scFv, not shown: small tags and cut ends, also called 69 scFv; antibody 69) scFv: MAQVQLVQSGAEVKEPGSSVKVSCKASGGTFSNYPISWVRQAPGQGLEWMGGIIPITNSPGYAQKFQGRVTISADESTGTVYMELSSLRSEDTAIYYCAKDPNRYESGVLHYWHGLDVWGQGTTVTVSSGGGGSGGGGSGGGGSLPVLTQPPSASGTPGQTVTLSCSGSSSNIGSNTVNWYQQLPGTAPKLLIYSNNQRPSGVPDRFSASKSGTSASLAITGLQAEDEADYFCAAWDDSLVYVFGTGTKVTVLGQPKAAPSAAAEQKLISEEDL
Reply: 1.69e+07

Ask: Entry to check: scFv 71 (scFv, also called 71 scFv; antibody 71) scFv: MAQVQLVQSGAEVKKPGASVKVSCKASGYTFSGYSTHWLRQVPGQGLEWIGWDNPSSGDTTYAENFRGRVTLTRDTSITTDYLEVRGLRSDDTAVYYCARGGDDYSFDHWGQGTLVTVSSGGGGSGGGGSGGGGSSYELTQPPSASGTTGQRVTISCSGSSSNIGSNTVNWYQQLPGTAPKLLIYSNNQRPSGVPDRLSGSKSGTSASLAISGLQSEDEADYYCAAWDARLTGPLFGGGTKLSVLRQPKAAPSAAAEQKLISEEDL
Reply: 3.64e+07

Ask: Entry to check: scFv 11 (scFv, also called 11 scFv; antibody 11) scFv: MAQVQLVQSGAEVKKPGASVKVSCKASGYTFSGYSTHWLRQVPGQGLEWIGWDNPSSGDTTYAENFRGRVTLTRDTSITTDYLEVRGLRSDDTAVYYCARGGDDYSFDHWGQGTLVTVSSGGGGSGGGGSGGGGSSSELTQDPAVSVALGQTVRITCRGDSLRSYYASWYQQKPGQAPVLVIYGENNRPSGIPDRFSGSSSGDTASLTITGAQAEDEADYYCNSRDSSDHLLLFGGGTKLTVLGQPKATPSAAAEQKLISEEDL
Reply: 2.03e+08

Ask: Entry to check: scFv 10 (scFv, not shown: small tags and cut ends, also called 10 scFv; antibody 10) scFv: MAQVQLVQSGAEVKKPGSSVKVSCKASGYTFSGYSTHWLRQVPGQGLEWIGWDNPSSGDTTYAENFRGRVTLTRDTSITTDYLEVRGLRSDDTAVYYCARGGDDYSFDHWGQGTLVTVSSSGGGSGGGGSGGGGSQTVVTQEPSFSVSPGGTITLTCGLSSGSVFTSYYPSWYQQTPGQAPRTLIYSTNTRSSGVPDRFSGSILGNKAALTITGAQADDESDYYCVLYMGSGIGVFGTGTKVTVLGQPKAAPSAAAEQKLISEEDL
Reply: 2.64e+07

Ask: Entry to check: scFv 79 (scFv, also called 79 scFv; antibody 79) scFv: MAQVQLVQSGAEVKKPGSSVKVSCKASGGTFSSYAISWVRQAPGQGLEWMGWMNSNTGDTGYAQKFQGRVTMTRNTSTSTAYMELSSLRSEDTAVYYCAKISNYHYYAMDVWGQGTLVTVSSGGGGSGGGGSGGGGSLPVLTQPPSASGTSGQTVTISCSGGSSNIGSHLVTWYQQFPGTAPKVLIHTNDQRPSGVPDRISGSKSGTSASLAISGLQSDDEGDYYCAAWDDSLNGYVFGTGTKVTVLGQPKATPSAAAEQKLISEEDL
Reply: 1.87e+08

Ask: Entry to check: scFv 85 (scFv, not shown: small tags and cut ends, also called 85 scFv; antibody 85) scFv: MAQVQLVQSGAEVKKPGASVKVSCKASGYTFSGYSTHWLRQVPGQGLEWIGWDNPSSGDTTYAENFRGRVTLTRDTSITTDYLEVRGLRSDDTAVYYCARGGDDYSFDHWGQGTLVTVSSGGGGSGGGGSGGGGSSSELTQDPAVSVALGQTVTITCQGGGLRNYYASWYQQKPGQAPVLLVYGRDNRPSGIPDRFSGSSSGNTASLTITGAQAEDEADYYCNSRDSSGNHLVFGGGTKLTVLGQPKATPSAAAEQKLISEEDL
Reply: 7.45e+08
